test: reduction of polyQ htt aggregates in cells – imaging, exon1htt(103Q)mCFP cells, high-content imaging, primary screen (AID 483); settings: exon1htt(103Q)mCFP cell line, aggregate imaging, at 2 µM; measured here: cell count, toxicity;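 further: compound exposure lasted 3 days before fixation; percent of the per-plate median nuclei count of sample wells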

# COMPOUND, nuclei count [%]
rows = [
    ("CC(C)(C)NC(=O)CN(C(=O)C1CSC(=O)C1)c1ccc2c(c1)OCCO2 (centres undefined)", 95.8),
    ("OCCn1c(CSc2nnc(-c3ccco3)n2-c2ccccc2)nc2ccc(Cl)cc21", 78.4),
    ("Cc1ccc(S(=O)(=O)N(CC(=O)N2CCOCC2)CC(=O)N2CCOCC2)cc1", 108),
    ("Cc1cc(C)n(CC(=O)NC2CCCCC2)n1", 105),
    ("CC(=O)Nc1ccccc1OCC(=O)c1cc(C)n(Cc2cccs2)c1C", 45.4),
    ("Cc1cc(NC(=O)C(C)(C)C)no1", 118),
    ("O=S(=O)(c1ccc(OCC(O)CN2CCC(Cc3ccccc3)CC2)cc1)N1CCOCC1 (centres undefined)", 120),
    ("CC(=O)c1ccc(NC(=O)CCc2c(C)nc3ncnn3c2C)cc1", 103),
    ("CCOC(=O)N1CCC(n2c(SCC(=O)NCc3ccco3)nc3ccsc3c2=O)CC1", 97.8),
    ("Cc1c(N=C2SCC(=O)N2c2c(C)n(C)n(-c3ccccc3)c2=O)c(=O)n(-c2ccccc2)n1C", 113),
    ("CN(C)c1ccc(/C=C/C(O)=C2/C(=O)N(C)C3(C)CC2c2ccccc2O3)cc1 (centres undefined)", 102),
    ("CC(=O)Nc1cc(NC(C)=O)cc(C(=O)OCC(=O)N2CC(C)OC(C)C2)c1 (centres undefined)", 104),
    ("CCC(C(=O)Nc1ncccn1)(C(F)(F)F)C(F)(F)F", 93.4),
    ("COc1cccc(-c2nnc(SCC(=O)N3CCCc4ccccc43)o2)c1", 100),
    ("O=C(OCc1nnc(-c2ccccc2)o1)c1ccc2ccccc2n1", 95.8),
    ("CCCC(=O)Nc1ccc(NC(=O)c2cccs2)cn1", 106),
    ("COc1ccc(S(=O)(=O)N(C)CC(=O)N2CCCCC2)cc1Cl", 94.8),
    ("Cc1ccc2c(c1)sc1ncc(NC(=O)c3ccccc3)c(=O)n12", 100),
    ("CC1(C)CN=C(N2CCN(c3ncnc4sc5c(c34)CCCC5)CC2)S1", 80.5),
]
